# Assayed system: Potassium channel subfamily K member 9 (Homo sapiens)
# Method description: KCNK9 potassium channel inhibitors, confirmation, HEK293 cells, thallium flux, duplicate (AID 492992)
# Condition description: FluxOR thallium flux fluorescence, at 10 µM
In all, about 4,900 compounds went through this assay and about 2,100 (43%) were called active.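 How the source made its calls: active means thallium signal inhibited by more than 5 SD of the compound-free buffer control wells, on both duplicate plates; inactive means the rest.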 The set was probably picked from earlier hits. Only a sample is shown.
A correct response names exactly one class from Y = active, N = inactive

# example entries with known answers
# Molecule, Category label
records = [
    ("CCOc1ccc2[nH]c(=O)c(CN(Cc3nnnn3CCc3ccccc3)CC3CCCO3)cc2c1 (stereo not drawn)", "Y"),
    ("COc1ccc(CCNc2ncnc3c2nnn3Cc2ccccc2)cc1", "N"),
    ("Cc1cc2ccccn2c1C(=O)c1cccc(F)c1", "N"),
    ("Cc1cc2ccccn2c1C(=O)c1cccc(S(=O)(=O)N2CCOCC2)c1", "N"),
    ("CCCCCCCCn1c2c(c(=N)c3c1CCC3)CCCC2", "Y"),
    ("O=C(NCCCc1ccccc1)c1cc(COc2c(F)cccc2F)on1", "N"),
    ("CCOc1ccc(C2c3[nH]c4ccccc4c3CCN2Cc2cccn2-c2ncccn2)cc1 (stereo not drawn)", "Y"),
    ("O=c1cc(CN2CCN(c3cccc(Cl)c3)CC2)c2cc3c(cc2o1)CCCC3", "N"),
    ("COc1ccc(/C=C2\\CCc3ccccc3C2=O)c(OC)c1OC", "N"),
    ("CC1(C)CC(N2CCN(C(c3ccccc3)c3ccccc3)CC2)=CC(=[N+]2CCCCC2)C1", "Y"),
]

INPUT: Hey, what did the test say about `Cc1ccc(OCc2cc(C(=O)N(C)CCc3ccccc3)no2)cc1C` ?
OUTPUT: N

* * *

# Assayed system: Potassium channel subfamily K member 9 (Homo sapiens) (UniProt Q9NPC2)
# Sequence (Q9NPC2 whole entry, looked up): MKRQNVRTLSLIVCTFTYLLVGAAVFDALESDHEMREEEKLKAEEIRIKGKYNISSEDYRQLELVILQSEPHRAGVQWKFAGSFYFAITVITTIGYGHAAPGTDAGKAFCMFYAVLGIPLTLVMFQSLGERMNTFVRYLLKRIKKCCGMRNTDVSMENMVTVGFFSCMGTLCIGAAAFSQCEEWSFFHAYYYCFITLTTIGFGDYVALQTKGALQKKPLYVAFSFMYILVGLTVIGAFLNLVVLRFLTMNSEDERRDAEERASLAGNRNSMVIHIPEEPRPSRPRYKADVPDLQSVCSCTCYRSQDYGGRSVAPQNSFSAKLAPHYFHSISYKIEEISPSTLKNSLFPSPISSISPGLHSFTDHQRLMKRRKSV
# Method description: KCNK9 potassium channel inhibitors, confirmation, HEK293 cells, thallium flux, duplicate (AID 492992)
# Condition description: FluxOR thallium flux fluorescence, at 10 µM
In all, about 4,900 compounds went through this assay and about 2,100 (43%) were called active.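 Rule for the calls: active = thallium signal inhibited by more than 5 SD of the compound-free buffer control wells, on both duplicate plates; inactive = the rest.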 So high a share suggests a set chosen from earlier hits. Only a sample is shown.
A correct response names exactly one class from true (active), false (inactive)

# example entries with known answers
# Compound smiles, Category label
data = [
    ("Clc1ccc(Cl)c(Oc2ccc(Oc3nc(Cl)ccc3Cl)cc2)n1", "false"),
    ("COc1cccc(C(=O)NCCSc2ccc(Br)cc2)c1", "false"),
    ("O=C(/C=C/NNC(=O)c1cccc(Br)c1)c1ccccc1", "true"),
    ("CC1=CC(C)(C)N(C(=O)CSc2nnc(-c3ccccc3)o2)c2ccc(C)cc21", "false"),
    ("c1ccc(C(c2ccccc2)N2CCN(Cc3nnnn3C3CCCCC3)CC2)cc1", "true"),
]

Then this compound:
INPUT: Hey, what did the test say about `COc1cc(NC(=S)NCCSc2ccc(C)cc2)cc(OC)c1` ?
OUTPUT: true

* * *

# Assayed system: Potassium channel subfamily K member 9 (Homo sapiens)
# Method description: KCNK9 potassium channel inhibitors, confirmation, HEK293 cells, thallium flux, duplicate (AID 492992)
# Condition description: FluxOR thallium flux fluorescence, at 10 µM
The whole screen tested about 4,900 compounds, of which about 2,100 (43%) were called active.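 Rule for the calls: active = thallium signal inhibited by more than 5 SD of the compound-free buffer control wells, on both duplicate plates; inactive = the rest.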 The set was probably picked from earlier hits. These entries were drawn from the full list.
A correct response names exactly one class from yes (active), no (inactive)

# Compound, Assayed system, Category label
records = [
    ("COc1ccc(-c2n[nH]c3c2CN(C(=O)c2ccc(F)cc2)CC3)cc1", "Potassium channel subfamily K member 9 (Homo sapiens)", "no"),
]

INPUT: Hey, what did the test say about `CCOC(=O)c1cc2sccc2n1Cc1ccc(C#N)cc1` ?
OUTPUT: yes

INPUT: Check Cc1cccc(NC(=O)N(Cc2cc3cc(C)cc(C)c3[nH]c2=O)CC2COCCO2)c1 (stereo unspecified) too.
OUTPUT: no

INPUT: Check Cc1ncoc1C(=O)N1CCCC(C(=O)c2ccc3c4c(cccc24)CC3)C1 (stereo unspecified) too.
OUTPUT: no

INPUT: Check O=C1CC(NNc2ccccc2)C(=O)N1c1cccc(Cl)c1 (stereo unspecified) too.
OUTPUT: no

INPUT: Check `Cc1ccc(-c2csc(NCCc3nc4cc(Cl)c(Cl)cc4n3CCOCCO)n2)cc1` too.
OUTPUT: yes

INPUT: Check `CCOC(=O)C1(CCOc2ccccc2)CCN(Cc2cc(OC)c(O)cc2Cl)CC1` too.
OUTPUT: no

INPUT: Check `CC1=C/C(=N\OS(=O)(=O)c2ccccc2)C=CC1=O` too.
OUTPUT: no

INPUT: Check `C/C(=N\NC(=S)Nc1ccc(C)cc1)c1cc2ccccc2o1` too.
OUTPUT: no

INPUT: Check Brc1ccc(C2CC(c3ccccc3)=Nc3ccccc3N2)cc1 (stereo unspecified) too.
OUTPUT: yes

INPUT: Check O=C(CC(NC(=O)c1ccccc1)c1ccccc1)Nc1ccc(F)c(F)c1 (stereo unspecified) too.
OUTPUT: no

* * *

# Assayed system: Potassium channel subfamily K member 9 (Homo sapiens) (UniProt Q9NPC2)
# Method description: KCNK9 potassium channel inhibitors, confirmation, HEK293 cells, thallium flux, duplicate (AID 492992);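 on inhibition: 0% = assay buffer control wells without compound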
# Condition description: FluxOR thallium flux fluorescence, at 10 µM; active compounds read high
Among all 4,900 compounds or so, about 2,100 (43%) were called active. So high a share suggests a set chosen from earlier hits. The list is a sample of the results.
Endpoint: inhibition

# Compound, inhibition
rows = [
    ("CCCC1=Nc2cc(C(=O)NCc3ccco3)ccc2Sc2ccccc21", "31.5% (active)"),
    ("CCCCC(=O)Nc1ccccc1N1CCN(c2ccc(F)cc2)CC1", "69% (active)"),
    ("CN(CCC(=O)Nc1cc(S(=O)(=O)N(C)C)ccc1Cl)CC(=O)Nc1ccc(F)cc1", "51.5% (active)"),
    ("O=C1N=C2SCCN2/C1=C\\c1c(Cl)cccc1Cl", "inactive"),
    ("CCn1cnc2scc(-c3ccc(C)c(C)c3)c2c1=O", "inactive"),
    ("C=CCc1cc(S(=O)(=O)c2ccc(O)c(CC=C)c2)ccc1O", "69% (active)"),
    ("O=C(NCc1ccco1)c1ccc(NS(=O)(=O)c2cccc([N+](=O)[O-])c2)cc1", "inactive"),
    ("O=C(Cc1ccccc1)n1nc(-c2ccccc2)nc1NCc1ccco1", "inactive"),
    ("Cc1ccc(NC2CCCN(C(=O)CCC3(C)CC3)C2)cc1C (stereo unspecified)", "inactive"),
    ("Cc1csc(Nc2ccc(Cl)cc2)[n+]1-c1ccc(Cl)cc1", "inactive"),
]

// below: inhibition requested for another compound
INPUT: Look at this compound and give its reported inhibition. CSc1cccc(NC(=S)N(C(C)C)C(C)c2ccccn2)c1 (stereo unspecified)
OUTPUT: 66.5% (active)

* * *

# Assayed system: Potassium channel subfamily K member 9 (Homo sapiens) (UniProt Q9NPC2)
# Method description: KCNK9 potassium channel inhibitors, confirmation, HEK293 cells, thallium flux, duplicate (AID 492992);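 on inhibition: 0% = assay buffer control wells without compound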
# Condition description: FluxOR thallium flux fluorescence, at 10 µM; active compounds read high
The whole screen tested about 4,900 compounds, of which about 2,100 (43%) were called active. The set was probably picked from earlier hits. Not all results are given here.
Endpoint: inhibition

# Compound, inhibition
data = [
    ("COc1cc(Cl)ccc1OCc1cc(C(=O)N2CC[C@@H]3CCCC[C@H]3C2)no1", "inactive"),
    ("Fc1ccc(Cn2nnnc2C(c2cccs2)N2CCCCCC2)cc1 (stereo not given)", "49% (active)"),
    ("CC(C)C(=O)Nc1cccc(NC(=S)NC(=O)C(c2ccccc2)c2ccccc2)c1", "52% (active)"),
    ("COC(C(=O)Nc1ccc(S(=O)(=O)Nc2ccc(C)c(C)c2)cc1)c1ccccc1 (stereo not given)", "inactive"),
    ("CCOc1ccc(OCc2ccc(C(=O)Nc3cccc(C)n3)o2)cc1", "inactive"),
    ("CCCCCn1c(=O)c(C(=O)OCC)c(Cl)c2ccccc21", "45.5% (active)"),
    ("Cc1[nH][nH]c(=O)c1C(c1ccc(-c2ccc(Cl)cc2)o1)c1c(C)[nH][nH]c1=O", "inactive"),
    ("O=C(Nc1ccc(Oc2ccccc2)cc1)c1ccco1", "50.5% (active)"),
    ("Cc1ccc(N2CCN(S(=O)(=O)c3ccc(F)cc3)CC2)c(C)c1", "inactive"),
]

INPUT: Look at this compound and give its reported inhibition. `O=C(Nc1ccc2c(c1)CCC2)c1cccc(S(=O)(=O)Nc2ccccc2Cl)c1`
OUTPUT: inactive

* * *

# Assayed system: Potassium channel subfamily K member 9 (Homo sapiens)
# Method description: KCNK9 potassium channel inhibitors, confirmation, HEK293 cells, thallium flux, duplicate (AID 492992)
# Condition description: FluxOR thallium flux fluorescence, at 10 µM
The campaign covered roughly 4,900 compounds. About 2,100 (43%) were called active.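 The calls were made as follows: active = thallium signal inhibited by more than 5 SD of the compound-free buffer control wells, on both duplicate plates; inactive = the rest.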 The set was probably picked from earlier hits. A selection follows.
A correct response names exactly one class from active, inactive

# Compound, Category label
data = [
    ("O=C(Nc1ccc(Cl)c(Cl)c1)N1CC=C(c2ccccc2)CC1", "active"),
    ("Cc1ccc(C(=O)c2c(NC(=O)c3ccccc3)sc(C)c2C)cc1", "inactive"),
    ("CCCOc1ccc2c3c(c(=O)oc2c1OCCC)CCC3", "active"),
]

INPUT: Hey, what did the test say about `COc1cc(Cl)c(C)cc1NC(=O)CSc1nnc(-c2ccco2)n1CC(C)C` ?
OUTPUT: active
